Test system: Echinochloa oryzicola Vasing
Assay: Herbicidal effects in paddy field soil treatment (Test Example 1)
Type: in vivo
Design: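 grade 0 to 5 of growth suppression where 5 is 90% or more and 0 below 10%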
Settings: paddy field soil treatment; 1000 g of the active ingredient per hectare; wettable powder added dropwise on water surface; 21st day after treatment
attribute-measured: Herbicidal effects index, Echinochloa oryzicola Vasing

These solved cases illustrate the format of a correct answer.
O=C1CCCC(O)=C1C(=O)c1nc2ccccc2n(-c2ccccn2)c1=O	5
CN(C(=O)OC(C)(C)C)n1c(=O)c(C(=O)C2=C(O)CCCC2=O)nc2ccccc21	4
O=C1CCCC(O)=C1C(=O)c1nc2cccnc2n(CC(F)(F)F)c1=O	5
O=C1CCCC(O)=C1C(=O)c1nc2ccccc2n(-c2ccon2)c1=O	5

Request: For CS(=O)(=O)c1ccc(-n2c(=O)c(C(=O)C3=C(O)CCCC3=O)nc3ccccc32)cc1 , what is its reported Herbicidal effects index, Echinochloa oryzicola Vasing?
Response: 5

====

Tested on: Echinochloa oryzicola Vasing
Test: Herbicidal effects in paddy field soil treatment (Test Example 1)
Type: in vivo
Set-up: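 grade 0 to 5 of growth suppression where 5 is 90% or more and 0 below 10%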
Details: paddy field soil treatment; 1000 g of the active ingredient per hectare; wettable powder added dropwise on water surface; 21st day after treatment
Give Herbicidal effects index, Echinochloa oryzicola Vasing for every item shown.
Give bare numbers.

N#CCCn1c(=O)c(C(=O)C2=C(O)CCCC2=O)nc2ccccc21	5
O=C1CCCC(O)=C1C(=O)c1nc2ccccc2n(C2=NOCC2)c1=O	5
CC(C)n1c(=O)c(C(=O)C2=C(O)CCCC2=O)nc2ccccc21	5
CCSCn1c(=O)c(C(=O)C2=C(O)CCCC2=O)nc2ccccc21	5

Request: For O=C1CCCC(O)=C1C(=O)c1nc2ccccc2n(-c2cccc3ccccc23)c1=O , what is its reported Herbicidal effects index, Echinochloa oryzicola Vasing?
Response: 5

====

Tested on: Echinochloa oryzicola Vasing
Assay: Herbicidal effects in paddy field soil treatment (Test Example 1)
Type: in vivo
Set-up: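 grade 0 to 5 of growth suppression where 5 is 90% or more and 0 below 10%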
Conditions: paddy field soil treatment; 1000 g of the active ingredient per hectare; wettable powder added dropwise on water surface; 21st day after treatment
Give Herbicidal effects index, Echinochloa oryzicola Vasing for every item shown.

These solved cases illustrate the format of a correct answer.
O=C1CCCC(O)=C1C(=O)c1nc2ccccc2n(-c2ccc(F)cc2)c1=O	5
COc1ccc2nc(C(=O)C3=C(O)CCCC3=O)c(=O)n(-c3cc(F)c(OC)c(F)c3)c2c1	5
O=C1CCCC(O)=C1C(=O)c1nc2cccnc2n(Cc2ccccc2)c1=O	5
O=C1CCCC(O)=C1C(=O)c1nc2cccnc2n(-c2ccccc2F)c1=O	4
O=C1CCCC(O)=C1C(=O)c1nc2ccccc2n(Cc2ccccc2)c1=O	4
O=C1CCCC(O)=C1C(=O)c1nc2ccccc2n(Cc2ccccc2Cl)c1=O	5
Cc1ccc(-n2c(=O)c(C(=O)C3=C(O)CCCC3=O)nc3ccccc32)cc1F	5
CCOc1cccc(-n2c(=O)c(C(=O)C3=C(O)CCCC3=O)nc3ccccc32)c1	5

Request: For O=C1CCCC(O)=C1C(=O)c1nc2cccnc2n(-c2ccccc2Cl)c1=O , what is its reported Herbicidal effects index, Echinochloa oryzicola Vasing?
Response: 5

====

Tested on: Echinochloa oryzicola Vasing
Test: Herbicidal effects in paddy field soil treatment (Test Example 1)
Assay type: in vivo
Design: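 grade 0 to 5 of growth suppression where 5 is 90% or more and 0 below 10%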
Conditions: paddy field soil treatment; 1000 g of the active ingredient per hectare; wettable powder added dropwise on water surface; 21st day after treatment
Give Herbicidal effects index, Echinochloa oryzicola Vasing for every item shown.
One number for each entry.

COc1ccccc1Cn1c(=O)c(C(=O)C2=C(O)CCCC2=O)nc2ccccc21 [I-120]	4
Cc1cc(-n2c(=O)c(C(=O)C3=C(O)C(C)(C)C(=O)C(C)(C)C3=O)nc3ccccc32)no1 [I-149]	5
O=C1CCCC(O)=C1C(=O)c1nc2ccccc2n(-c2ccccc2)c1=O [II-1]	5
O=C1CCCC(O)=C1C(=O)c1nc2cccnc2n(Cc2ccccc2Cl)c1=O [III-111]	5
O=C1CCCC(O)=C1C(=O)c1nc2cccnc2n(-c2cccc(F)c2)c1=O [IV-7]	5
COc1c(F)cc(-n2c(=O)c(C(=O)C3=C(O)CCCC3=O)nc3c(F)cccc32)cc1F [II-235]	4
CC(C)Oc1ccc(-n2c(=O)c(C(=O)C3=C(O)CCCC3=O)nc3ccccc32)cc1 [II-75]	5
Cc1ccc(-n2c(=O)c(C(=O)C3=C(O)CCCC3=O)nc3ccccc32)c(F)c1 [II-212]	5

Now consider a different compound.
Request: For CC1(C)CCC(=O)C(C(=O)c2nc3cccnc3n(-c3ccccc3)c2=O)=C1O [IV-2] , what is its reported Herbicidal effects index, Echinochloa oryzicola Vasing?
Response: 5
